target of assay: HLA-B*15:01
protocol notes: IEDB peptide-MHC binding, purified MHC/competitive/fluorescence; filed as Kd, often an IC50 or EC50 that approximates it; bounds were set here for any values at or beyond the usual limits of such assays
setup conditions: source organism: Yersinia pestis Angola
quantity kind: Kd (nM)
// note: answer is a bare numeric in nM

Lab book: Kd of `RIYHEFLSL` noted as 97.5

----------
target of assay: HLA-B*27:05
protocol notes: IEDB peptide-MHC binding, purified MHC/direct/fluorescence; filed as Kd, often an IC50 or EC50 that approximates it; bounds were set here for any values at or beyond the usual limits of such assays
setup conditions: source organism: Influenza A virus (A/Hong Kong/507/97(H5N1))
quantity kind: Kd

Entry under test: `GTSKIKMKW` . Its Kd was ≥ 20 µM
